Data credit: patent US20260041683A1

System: Ab ATCC 19606 (strain I)
Test: MIC determination (double dilution, Mueller-Hinton broth)
Format: cell-based, Acinetobacter baumannii
Settings: Acinetobacter baumannii, ATCC19606; Table 5; Mueller-Hinton medium; I = A. baumannii ATCC 19606; read-out: MIC strain I
measured-endpoint: MIC (µg/mL)
Please give a number only; it is taken to be in µg/mL.

Consider the reported MIC for these molecules:
1. O=C(NNc1ccc(Cl)cc1)c1ccccn1 [Compound 2e] | 0.25
2. O=C(NNc1ccc(Cl)cc1)c1cc2ccccc2[nH]1 [Compound 14e] | 0.5
3. O=C(NNc1cccc(F)c1)c1ccc(F)cn1 [Compound 3a] | 0.5
4. O=C(NNc1cccc(Cl)c1)c1ccccn1 [Compound 2b] | 2
5. O=C(NNc1ccc(Cl)cc1)c1ccccc1 [Compound 10e] | 0.25
6. COc1cccc(NNC(=O)c2ccc(F)cn2)c1 [Compound 3c] | 0.5

Query: Identify the measured MIC of O=C(NNc1ccc(F)cc1)c1ccc(F)cn1 [Compound 3d] for Ab ATCC 19606 (strain I).
Reply: 0.5

Query: Identify the measured MIC of O=C(O)c1cn(C2CC2)c2cc(N3CCNCC3)c(F)cc2c1=O [CIP, ciprofloxacin, reference compound] for Ab ATCC 19606 (strain I).
Reply: 1

====

Recorded MIC for the following compounds
System: Ab ATCC 19606 (strain I)
Assay: MIC determination (double dilution, Mueller-Hinton broth)
Format: cell-based, Acinetobacter baumannii
Details: Acinetobacter baumannii, ATCC19606; Table 1; control strain; read-out: MIC Ab ATCC 19606
Please give a number only; it is taken to be in mg/L.

Consider the reported MIC for these compounds:
1. COc1ccc(NNC(=O)c2ccc(F)cn2)cc1 | 1
2. NC[C@H]1O[C@H](O[C@H]2[C@H](O)[C@@H](O[C@H]3O[C@H](CO)[C@@H](O)[C@H](N)[C@H]3O)[C@H](N)C[C@@H]2N)[C@H](O)[C@@H](O)[C@@H]1O [KAN, kanamycin, reference compound] | 5
3. O=C(NNc1ccc(Cl)cc1)c1ccccn1 | 0.25
4. O=C(NNc1ccc(Cl)cc1)c1ccc(F)cc1F | 0.25
5. O=C(NNc1cccc(F)c1)c1ccc(Br)cn1 | 0.5
6. C=CC(=O)NNc1ccc(Cl)cc1 [Compound 17e] | 0.25
7. O=C(NNc1cccc(Cl)c1)c1ccccn1 | 2
8. COc1cccc(NNC(=O)c2ccc(F)cn2)c1 | 0.5

Query: What value of MIC has been recorded for this entry: "COc1cccc(NNC(=O)c2ccccn2)c1"
Reply: 0.5

Query: What value of MIC has been recorded for this entry: O=C(NNc1cccc(F)c1)c1cccnc1 [Compound 11a]
Reply: 0.25

====

System: K. pneumoniae ATCC 27736
Assay: MIC determination
Format: cell-based
Conditions: Klebsiella pneumoniae, ATCC27736; Table 5; Mueller-Hinton medium; F = K. pneumoniae ATCC 27736; read-out: MIC strain F
measured-endpoint: MIC (µg/mL)
Please give a number only; it is taken to be in µg/mL.

Consider the reported MIC for these compounds:
1) O=C(NNc1ccc(Cl)cc1)c1ccco1 [Compound 15e] | 16
2) O=C(NNc1ccc(Cl)cc1)c1ccccn1 [Compound 2e] | 64
3) O=C(NNc1ccc(Cl)cc1)c1cccc(F)n1 [Compound 5e] | 16
4) O=C(NNc1ccc(F)cc1)c1ccc(F)cn1 [Compound 3d] | 64
5) O=C(NNc1cccc(Cl)c1)c1ccccn1 [Compound 2b] | 16

Query: Identify the measured MIC of CCC(=O)NNc1ccc(Cl)cc1 [Compound 16e] for K. pneumoniae ATCC 27736.
Reply: 16

Query: Identify the measured MIC of O=C(NNc1ccc(Cl)cc1)c1ccccc1 [Compound 10e] for K. pneumoniae ATCC 27736.
Reply: 16

Query: Identify the measured MIC of O=C(NNc1ccc(Cl)cc1)c1ccc(F)cn1 [Compound 3e] for K. pneumoniae ATCC 27736.
Reply: 64

Query: Identify the measured MIC of C=CC(=O)NNc1ccc(Cl)cc1 [Compound 17e] for K. pneumoniae ATCC 27736.
Reply: 16

====

Recorded MIC for the following compounds
Test system: Ab ATCC 19606 (strain I)
Assay: MIC determination (double dilution, Mueller-Hinton broth)
Assay type: cell-based, Acinetobacter baumannii
Settings: Acinetobacter baumannii, ATCC19606; Table 5; Mueller-Hinton medium; I = A. baumannii ATCC 19606; read-out: MIC strain I
Please give a number only; it is taken to be in µg/mL.

Consider the reported MIC for these compounds:
1. O=C(NNc1ccc(Cl)cc1)c1ccco1 [Compound 15e] | 0.5
2. O=C(NNc1ccc(Cl)cc1)c1ccc2ccccc2n1 [Compound 12e] | 0.5

Query: What value of MIC has been recorded for this entry: COc1ccc(NNC(=O)c2ccc(F)cn2)cc1 [Compound 3f]
Reply: 1

Query: What value of MIC has been recorded for this entry: O=C(NNc1ccc(Cl)cc1)c1ccc(F)cc1F [Compound 1e]
Reply: 0.25

Query: What value of MIC has been recorded for this entry: O=C(NNc1ccc(Cl)cc1)c1ccc(F)cn1 [Compound 3e]
Reply: 1

Query: What value of MIC has been recorded for this entry: C=CC(=O)NNc1ccc(Cl)cc1 [Compound 17e]
Reply: 0.25

====

System: S. enterica ATCC 14028
Experiment: MIC determination
Assay type: cell-based
Conditions: Salmonella enterica, ATCC14028; Table 5; Mueller-Hinton medium; H = S. enterica ATCC 14028; read-out: MIC strain H
measured-endpoint: MIC (µg/mL)
Please give a number only; it is taken to be in µg/mL.

1. O=C(NNc1ccc(Cl)cc1)c1ccccc1 [Compound 10e] | 64

Field: next compound
Query: What value of MIC has been recorded for this entry: "O=C(NNc1ccc(Cl)cc1)c1cccc(F)n1"
Reply: 16

====

System: S. enterica ATCC 14028
Assay: MIC determination
Assay type: cell-based
Settings: Salmonella enterica, ATCC14028; Table 5; Mueller-Hinton medium; H = S. enterica ATCC 14028; read-out: MIC strain H
Recorded MIC for the following compounds
Please give a number only; it is taken to be in µg/mL.

Consider the reported MIC for these compounds:
1) O=C(NNc1ccc(Cl)cc1)c1ccco1 [Compound 15e] | 16
2) O=C(NNc1cccc(Cl)c1)c1ccccn1 | 16
3) O=C(NNc1ccc(Cl)cc1)c1ccc(F)cn1 | 64
4) C=CC(=O)NNc1ccc(Cl)cc1 [Compound 17e] | 16

Query: What value of MIC has been recorded for this entry: CCC(=O)NNc1ccc(Cl)cc1 [Compound 16e]
Reply: 64

Query: What value of MIC has been recorded for this entry: "O=C(NNc1ccc(F)cc1)c1ccc(F)cn1"
Reply: 64

Query: What value of MIC has been recorded for this entry: "O=C(NNc1ccc(Cl)cc1)c1ccccn1"
Reply: 64

====

Tested on: Ab ATCC 19606 (strain I)
Test: MIC determination (double dilution, Mueller-Hinton broth)
Format: cell-based, Acinetobacter baumannii
Conditions: Acinetobacter baumannii, ATCC19606; Table 1; control strain; read-out: MIC Ab ATCC 19606
measured-endpoint: MIC

Consider the reported MIC for these compounds:
1. O=C(NNC1CCCCC1)c1cccnc1 [Compound 11h] | > 64 mg/L
2. CCOC(=O)CNNC(=O)c1ccc(F)cn1 | > 64 mg/L

Field: next compound
Query: What value of MIC has been recorded for this entry: CCC(=O)NNc1ccc(Cl)cc1 [Compound 16e]
Reply: ≤ 0.25 mg/L

====

Test system: S. enterica ATCC 14028
Assay: MIC determination
Type: cell-based
Settings: Salmonella enterica, ATCC14028; Table 5; Mueller-Hinton medium; H = S. enterica ATCC 14028; read-out: MIC strain H
measured-endpoint: MIC

1) O=C(NNC1CCCCC1)c1ccc2ccccc2n1 [Compound 12h] | > 64 µg/mL
2) O=C(NNc1ccc(Cl)cc1)c1cc2ccccc2[nH]1 [Compound 14e] | > 64 µg/mL

Query: Identify the measured MIC of O=C(O)c1cn(C2CC2)c2cc(N3CCNCC3)c(F)cc2c1=O [CIP, ciprofloxacin, reference compound] for S. enterica ATCC 14028.
Reply: ≤ 0.0625 µg/mL
